# target_system: IGFBP-3 (recombinant human IGF-binding protein 3, rhIGFBP-3) (Homo sapiens, UniProt P17936)
# Sequence (P17936 28-291): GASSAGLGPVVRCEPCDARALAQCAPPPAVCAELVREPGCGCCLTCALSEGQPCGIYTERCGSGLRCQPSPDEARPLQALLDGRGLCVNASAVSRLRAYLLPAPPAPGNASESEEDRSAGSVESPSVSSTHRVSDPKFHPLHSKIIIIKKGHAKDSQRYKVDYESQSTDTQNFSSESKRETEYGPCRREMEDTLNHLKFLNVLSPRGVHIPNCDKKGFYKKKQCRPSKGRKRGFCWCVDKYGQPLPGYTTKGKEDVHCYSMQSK
# Sequence (P05019 49-118 partner): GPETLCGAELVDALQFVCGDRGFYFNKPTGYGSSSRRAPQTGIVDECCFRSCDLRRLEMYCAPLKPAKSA
observation_type: pIC50
Note on pIC50: it is the negative log10 of concentration, concentration in mol/L.

# get_value(readout='pIC50', item= O=C(O)c1cc2cc(O)c(O)cc2c(C(=O)c2ccc(O)c(O)c2)n1 ) 8.70
